Values from PubChem BioAssay

tested on: glycogen synthase kinase-3 (GSK3A per assay name; protocol says GSK3B); experiment: GSK3 binders on small-molecule microarrays, primary screen, biochemical, small-molecule microarray, 635 nm fluorescence, GSK3A (AID 1103); conditions: small-molecule microarray binding, fluorescence 635 nm; higher = more signal; note: the record names both GSK3A and GSK3B
OUTCOME_MEASURE: composite z-score

[
  {
    "STRUCTURE": "CC(C)(C)OC(=O)CC[C@]1(C(=O)O)N=C(c2ccc(OCCCO)cc2)O[C@H]1c1ccccc1N=[N+]=[N-]",
    "OUTCOME_MEASURE": "composite z-score",
    "ENDPOINT_VALUE": 0.581
  },
  {
    "STRUCTURE": "C=CCNC(=O)[C@H]1[C@@H]2C(=O)O[C@@H](c3ccccc3)[C@@H](c3ccccc3)N2[C@@H](c2ccccc2OCCO)[C@]12C(=O)Nc1ccc(C#CC3=CCCCC3)cc12",
    "OUTCOME_MEASURE": "composite z-score",
    "ENDPOINT_VALUE": 1.3
  },
  {
    "STRUCTURE": "CC(C)(C)OC(=O)CC[C@@]12N=C(c3ccc(OCCCO)cc3)O[C@@H]1c1ccccc1N(CCS(=O)(=O)c1ccccc1)C2=O",
    "OUTCOME_MEASURE": "composite z-score",
    "ENDPOINT_VALUE": 0.323
  },
  {
    "STRUCTURE": "CCCC=C(CCC)[C@@H](NS(=O)(=O)c1cccs1)c1ccc(C(=O)OC)cc1",
    "OUTCOME_MEASURE": "composite z-score",
    "ENDPOINT_VALUE": 1.19
  },
  {
    "STRUCTURE": "COCC(=C=CC[C@@H](O)c1ccccc1OCCO)C[C@@H](O)c1cc(Cl)cc(Cl)c1O",
    "OUTCOME_MEASURE": "composite z-score",
    "ENDPOINT_VALUE": 1.28
  },
  {
    "STRUCTURE": "COc1cc2c(cc1OC)CN(C(=O)[C@H]1[C@@H]3C(=O)O[C@@H](c4ccccc4)[C@@H](c4ccccc4)N3[C@@H](c3ccc(O)cc3)[C@]13C(=O)Nc1ccc(C#CCNC(N)=O)cc13)CC2",
    "OUTCOME_MEASURE": "composite z-score",
    "ENDPOINT_VALUE": -0.294
  },
  {
    "STRUCTURE": "COC(=O)[C@@]1(Cc2ccc(F)cc2)[C@H]2c3cc(C(=O)N(C)C)n(Cc4ccc(S(C)(=O)=O)cc4)c3C[C@H]2CN1C(=O)c1ccccc1",
    "OUTCOME_MEASURE": "composite z-score",
    "ENDPOINT_VALUE": 0.0364
  }
]

---

target: Left-right determination factor 2 (Homo sapiens); test: LEFTY2 binders on small-molecule microarrays, primary screen, biochemical, small-molecule microarray, 635 nm fluorescence scan (AID 1110); settings: LEFTY2 binding, higher = more signal
Dear colleague, classification is by composite z-score, with ranges listed here: low interval = under -0.2, middle interval = from -0.2 up to 0.4, high interval = 0.4 and over

[
  {
    "MOLECULE": "CN(C)CCCNC(=O)[C@@]1(C)c2ccccc2C(=O)N(Cc2cc(F)cc(C(F)(F)F)c2)[C@H]1c1ccc(CO)cc1",
    "CAT": "low interval"
  },
  {
    "MOLECULE": "C[N+](C)(C)CCCCNC(=O)[C@H]1C[C@H]2C(=O)N[C@@H](Cc3ccccc3)C(=O)N2[C@H]1c1ccc(O)cc1",
    "CAT": "high interval"
  },
  {
    "MOLECULE": "COc1cc(CO)cc(I)c1O[C@H]1C=C(C(=O)NCCO)C[C@@H](N(CCN2CCOCC2)C(=O)C2CCOC2)[C@@H]1O (stereo partly specified)",
    "CAT": "high interval"
  },
  {
    "MOLECULE": "CC1CC/C=C\\[C@H]2OC34C=CCN(c5ccc(Cl)cc5)C(=O)[C@H]3N(CCO)C(=O)[C@]4(C)C2C(=O)O1 (stereo partly specified)",
    "CAT": "low interval"
  },
  {
    "MOLECULE": "CC(C)N1C(=O)c2ccccc2[C@](C)(C(=O)NCc2ccccc2)[C@@H]1c1ccc(CO)cc1",
    "CAT": "low interval"
  },
  {
    "MOLECULE": "Cc1ccc(C(C)CC(O)C2C=CC3C(=O)N(C)C(=O)C3N2NC(=O)OC(C)(C)C)o1 (stereo unspecified)",
    "CAT": "high interval"
  },
  {
    "MOLECULE": "C=CC[C@@]1(C(=O)N(C)C)N=C(c2ccc(OCCCO)cc2)O[C@@H]1c1ccccc1N=[N+]=[N-]",
    "CAT": "middle interval"
  },
  {
    "MOLECULE": "C=CC[C@@]1(C(=O)NCc2ccccc2)N=C(c2ccc(OCCCO)cc2)O[C@@H]1c1ccccc1N=[N+]=[N-]",
    "CAT": "low interval"
  },
  {
    "MOLECULE": "O=C1C2C=CC(C(O)C(c3ccccc3)c3ccccc3)N(n3cnnc3)C2C(=O)N1Cc1ccccc1 (stereo unspecified)",
    "CAT": "middle interval"
  },
  {
    "MOLECULE": "CCCC=C(CCC)[C@@H](NC(=O)Oc1ccc(F)cc1)c1ccc(C(=O)OC)cc1",
    "CAT": "middle interval"
  },
  {
    "MOLECULE": "C=CCN1C(=O)[C@@]2(O[C@@H](CCO)[C@H]([Si](C)(C)c3ccc(OC)cc3)[C@H]2C)c2cc(NC(=O)c3ccc(OC)cc3)ccc21",
    "CAT": "high interval"
  },
  {
    "MOLECULE": "COC(=O)[C@@]1(Cc2ccccc2)[C@H]2c3cc(C(=O)N4CCCC4)n(Cc4nc5ccccc5[nH]4)c3C[C@H]2CN1C(=O)c1ccccc1",
    "CAT": "middle interval"
  },
  {
    "MOLECULE": "COc1ccc(C(O)C2C=CC3C(=O)NC(=O)C3N2Nc2ccccn2)c2ccccc12 (stereo unspecified)",
    "CAT": "middle interval"
  },
  {
    "MOLECULE": "CN1C(=O)C2C=CC(C(O)c3ccccc3)N(Nc3ccccc3)C2C1=O (stereo unspecified)",
    "CAT": "low interval"
  },
  {
    "MOLECULE": "COCCOC(=O)N1C(=O)[C@@]2(c3ccccc31)[C@H](c1ccc(O)cc1)N1[C@H](c3ccccc3)[C@H](c3ccccc3)OC(=O)[C@H]1[C@@H]2C(=O)NC[C@H](O)c1ccccc1",
    "CAT": "middle interval"
  },
  {
    "MOLECULE": "[N-]=[N+]=NCc1ccccc1C[C@]1(C(=O)N2CCOCC2)N=C(c2ccc(OCCCO)cc2)O[C@H]1c1ccccc1N=[N+]=[N-]",
    "CAT": "high interval"
  }
]

---

biological target: Torsin-1A-interacting protein 2 (Homo sapiens); test: LULL1 binders on small-molecule microarray, primary screen, cell lysate, human LULL1 lysate, 635/667 nm fluorescence (AID 1092); conditions: hLULL1 lysate binding, 635 nm fluorescence, higher = more signal;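 note: probe is lysate of COS7 cells overexpressing human LULL1; score merges per-feature 667 nm fluorescence with signal-to-noise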
OUTCOME_MEASURE: composite z-score

[
  {
    "MOLECULE": "C=CCOC(=O)[C@H]1[C@@H]2C(=O)O[C@@H](c3ccccc3)[C@@H](c3ccccc3)N2[C@@H](c2ccc(OCCOC(=O)[C@H]3C[C@H]4C(=O)N5CCC[C@H]5C(=O)N4[C@H]3c3ccc(O)cc3)cc2)[C@]12C(=O)Nc1ccccc12",
    "EXPERIMENTAL_SYSTEM": "Torsin-1A-interacting protein 2 (Homo sapiens)",
    "ENDPOINT_VALUE": 3.03
  },
  {
    "MOLECULE": "C=C(CCCC)C(=O)CC[C@H](OC(=O)c1cccnc1)c1ccccc1OCCO",
    "EXPERIMENTAL_SYSTEM": "Torsin-1A-interacting protein 2 (Homo sapiens)",
    "ENDPOINT_VALUE": -0.0709
  },
  {
    "MOLECULE": "CC1(C)[C@@H]2CC(C(O)C3C=CC4C(=O)N(c5ccccc5)C(=O)C4N3Nc3ccccc3)=C[C@H]1C2 (some centres undefined)",
    "EXPERIMENTAL_SYSTEM": "Torsin-1A-interacting protein 2 (Homo sapiens)",
    "ENDPOINT_VALUE": 2.58
  },
  {
    "MOLECULE": "O=C1C2C=CC(C(O)c3ccc(F)cc3)N(Nc3ccccc3F)C2C(=O)N1c1ccccc1 (centres undefined)",
    "EXPERIMENTAL_SYSTEM": "Torsin-1A-interacting protein 2 (Homo sapiens)",
    "ENDPOINT_VALUE": 3.48
  },
  {
    "MOLECULE": "COC(=O)c1c(CC[C@@H](CO)NC(=O)N[C@H](Cn2cc(Cc3ccccc3)nn2)C(C)C)oc(C(C)=O)c1C(=O)OC",
    "EXPERIMENTAL_SYSTEM": "Torsin-1A-interacting protein 2 (Homo sapiens)",
    "ENDPOINT_VALUE": 1.08
  },
  {
    "MOLECULE": "COC(=O)C(CC#Cc1ccc2c(c1)[C@]1(C(=O)N2)[C@H](c2ccc(O)cc2)N2[C@H](c3ccccc3)[C@H](c3ccccc3)OC(=O)[C@H]2[C@@H]1C(=O)Nc1nc2ccccc2s1)C(=O)OC",
    "EXPERIMENTAL_SYSTEM": "Torsin-1A-interacting protein 2 (Homo sapiens)",
    "ENDPOINT_VALUE": 3.22
  },
  {
    "MOLECULE": "CC(CO)N1C(=O)[C@@H]2C3C(=O)OCCC/C=C\\[C@H]3OC23C=CCN(c2ccc4ccccc4c2)C(=O)[C@@H]13 (some centres undefined)",
    "EXPERIMENTAL_SYSTEM": "Torsin-1A-interacting protein 2 (Homo sapiens)",
    "ENDPOINT_VALUE": -0.504
  },
  {
    "MOLECULE": "CN(C)C(=O)[C@]1(Cc2ccccc2N=[N+]=[N-])N=C(c2ccc(OCCCO)cc2)O[C@@H]1c1ccccc1",
    "EXPERIMENTAL_SYSTEM": "Torsin-1A-interacting protein 2 (Homo sapiens)",
    "ENDPOINT_VALUE": 3.02
  },
  {
    "MOLECULE": "COCCOC(=O)N1C(=O)[C@@]2(c3ccccc31)[C@H](c1ccccc1OCCO)N1[C@H](c3ccccc3)[C@H](c3ccccc3)OC(=O)[C@H]1[C@@H]2C(=O)Nc1nc2ccccc2s1",
    "EXPERIMENTAL_SYSTEM": "Torsin-1A-interacting protein 2 (Homo sapiens)",
    "ENDPOINT_VALUE": 2.25
  },
  {
    "MOLECULE": "CC(C)[C@@H](CO)NC(=O)[C@H]1[C@@H](c2ccccc2)N(c2ccccc2)O[C@@H]1C",
    "EXPERIMENTAL_SYSTEM": "Torsin-1A-interacting protein 2 (Homo sapiens)",
    "ENDPOINT_VALUE": 1.02
  },
  {
    "MOLECULE": "C=CCNC(=O)[C@@H]1[C@H]2C(=O)O[C@H](c3ccccc3)[C@H](c3ccccc3)N2[C@H](c2ccccc2OCCO)[C@@]12C(=O)N(C(=O)OCCOC)c1ccc(C#CCNC(N)=O)cc12",
    "EXPERIMENTAL_SYSTEM": "Torsin-1A-interacting protein 2 (Homo sapiens)",
    "ENDPOINT_VALUE": 2.85
  },
  {
    "MOLECULE": "C=C(COC)/C(=C/C[C@@H](OC(C)=O)c1ccc(CO)o1)c1cnc2ccccc2c1",
    "EXPERIMENTAL_SYSTEM": "Torsin-1A-interacting protein 2 (Homo sapiens)",
    "ENDPOINT_VALUE": 0.612
  },
  {
    "MOLECULE": "CC(C)(C)OC(=O)CC[C@]1(C(=O)O)N=C(c2ccc(OCCCO)cc2)O[C@H]1c1ccccc1N=[N+]=[N-]",
    "EXPERIMENTAL_SYSTEM": "Torsin-1A-interacting protein 2 (Homo sapiens)",
    "ENDPOINT_VALUE": 3
  },
  {
    "MOLECULE": "CC(C)C(=C=CC[C@@H](O)c1ccccc1OCCO)CCO",
    "EXPERIMENTAL_SYSTEM": "Torsin-1A-interacting protein 2 (Homo sapiens)",
    "ENDPOINT_VALUE": -0.559
  }
]
